Record form. Attribute: melting point. Fill in for each entry.

Given the compound O=C(NC1CCCCC1)C1CN(c2ccc(Cl)cc2)C(c2ccc(Cl)cc2Cl)=N1 (stereo not drawn) , what is its reported melting point?
127 to 129 °C

Given the compound N/C(=N\S(=O)(=O)c1ccc(Cl)cc1)C1CN(c2ccc(Cl)cc2)C(c2ccc(Cl)cc2Cl)=N1 (stereo not drawn) , what is its reported melting point?
165 to 166 °C

Given the compound O=C(NN1CCCCC1)C1CN(c2ccc(Cl)cc2)C(c2ccc(Cl)cc2Cl)=N1 (stereo not drawn) , what is its reported melting point?
113 to 116 °C

Given the compound CN(C)S(=O)(=O)/N=C(\N)C1CN(c2ccc(Cl)cc2)C(c2ccc(Cl)cc2Cl)=N1 (stereo not drawn) , what is its reported melting point?
146 to 147 °C

Given the compound N/C(=N\S(=O)(=O)c1ccc(F)cc1)C1CN(c2ccc(Cl)cc2)C(c2ccc(Cl)cc2Cl)=N1 (stereo not drawn) , what is its reported melting point?
172 to 175 °C

Given the compound CN(C)S(=O)(=O)/N=C(\N)C1CN(c2ccccc2)C(c2ccc(Cl)cc2)=N1 (stereo not drawn) , what is its reported melting point?
136 to 139 °C

---

- SYSTEM: human cannabinoid CB1 receptor (Homo sapiens)
- Sequence (P21554 whole entry): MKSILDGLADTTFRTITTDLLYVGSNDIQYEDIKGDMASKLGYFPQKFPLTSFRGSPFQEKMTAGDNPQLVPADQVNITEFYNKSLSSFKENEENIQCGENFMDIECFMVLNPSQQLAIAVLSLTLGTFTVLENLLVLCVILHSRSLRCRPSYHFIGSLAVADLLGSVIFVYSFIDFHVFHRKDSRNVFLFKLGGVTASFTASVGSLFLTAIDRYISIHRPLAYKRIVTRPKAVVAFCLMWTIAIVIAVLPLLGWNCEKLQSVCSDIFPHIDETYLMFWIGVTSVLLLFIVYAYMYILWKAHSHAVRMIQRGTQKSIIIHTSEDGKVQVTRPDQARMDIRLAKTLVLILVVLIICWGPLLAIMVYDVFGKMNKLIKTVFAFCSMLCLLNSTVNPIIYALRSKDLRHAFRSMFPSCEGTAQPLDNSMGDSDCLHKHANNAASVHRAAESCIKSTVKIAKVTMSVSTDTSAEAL
- ASSAY PROCEDURE: In vitro affinity for cannabinoid-CB1 receptors ([3H]CP-55,940 radioligand binding, CHO cell membranes)
- STUDY CONDITIONS: [3H]CP-55,940 as radioligand, read-out: In vitro affinity pKi value (converted)
MEASURE NAME: Ki (nM)
The answer is to be given in nM; state only the numeric part.

Given the compound O=C(NC1CC2CCC1C2)C1CN(c2ccc(Cl)cc2)C(c2ccc(Cl)cc2Cl)=N1 (single isomer, unassigned) [Compound 1] , what is its reported Ki?
20

Given the compound O=C(NC1CC2CCC1C2)C1CN(c2ccc(Cl)cc2)C(c2ccc(Cl)cc2Cl)=N1 (single isomer, unassigned) [Compound 2] , what is its reported Ki?
100

Given the compound O=C(NC1CCCCC1)C1CN(c2ccc(Cl)cc2)C(c2ccc(Cl)cc2Cl)=N1 (stereo not shown) , what is its reported Ki?
100

Given the compound CN(C)S(=O)(=O)/N=C(\N)C1CN(c2ccc(Cl)cc2)C(c2ccc(Cl)cc2Cl)=N1 (stereo not shown) , what is its reported Ki?
158
